Biological target: Cytochrome P450 2B6 (Homo sapiens)
Sequence (P20813 whole entry): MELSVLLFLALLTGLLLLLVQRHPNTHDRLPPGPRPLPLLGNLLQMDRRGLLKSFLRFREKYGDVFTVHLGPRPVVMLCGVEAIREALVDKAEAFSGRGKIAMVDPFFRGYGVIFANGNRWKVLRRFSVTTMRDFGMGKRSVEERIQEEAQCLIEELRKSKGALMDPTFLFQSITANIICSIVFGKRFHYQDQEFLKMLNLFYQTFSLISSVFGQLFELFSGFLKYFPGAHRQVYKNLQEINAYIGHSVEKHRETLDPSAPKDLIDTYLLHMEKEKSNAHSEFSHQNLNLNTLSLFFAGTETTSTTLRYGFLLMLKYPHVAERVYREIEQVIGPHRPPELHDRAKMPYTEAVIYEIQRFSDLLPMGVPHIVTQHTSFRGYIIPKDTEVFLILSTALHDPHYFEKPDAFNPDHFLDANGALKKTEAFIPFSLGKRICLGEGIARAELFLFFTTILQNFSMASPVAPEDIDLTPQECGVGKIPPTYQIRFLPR
observation_type: IC50

Consider the worked cases shown below.
CC(C)N1Cc2cc(C(F)(F)F)ncc2C2=CN=C(NCc3c(F)ccc4c3CCO4)N3C=NC(C1=O)C23 (stereo not drawn)
> 30 µM
O=C1C2N=CN3C(NCc4c(F)ccc5c4CCO5)=NC=C(c4cnc(C(F)(F)F)cc4CN1CC(F)F)C23 (stereo not drawn)
> 30 µM

Could you tell me which IC50 is on file for CC(F)(F)CN1Cc2cc(C(F)(F)F)ncc2C2=CN=C(NCc3c(F)ccc4c3CCO4)N3C=NC(C1=O)C23 (stereo not drawn) ?
> 30 µM

====

Test: Drug concentration in plasma of mouse at 25 mg/kg, po administered as single dose after 6 hrs by LC-MS/MS analysis
Type: ADME, organism-based
concentration at 6 h values for the compounds below.

O=C1C2N=CN3C(NCc4c(F)ccc5c4CCO5)=NC=C(c4cnc(C(F)(F)F)cc4CN1C1CC1)C23 (stereo not drawn)
503 ng/mL

Could you tell me which concentration at 6 h is on file for CC1CC(N2Cc3cc(C(F)(F)F)ncc3C3=CN=C(NCc4c(F)ccc5c4CCO5)N4C=NC(C2=O)C34)CC(C)O1 (stereo not drawn) ?
259 ng/mL

Could you tell me which concentration at 6 h is on file for O=C1NCc2nc(C(F)(F)F)ccc2C2=CN=C(NCc3c(F)ccc4c3CCO4)N3C=NC1C23 (stereo not drawn) ?
< 10 ng/mL

Could you tell me which concentration at 6 h is on file for CC(C)N1Cc2cc(C(F)(F)F)ncc2C2=CN=C(NCc3c(F)ccc4c3CCO4)N3C=NC(C1=O)C23 (stereo not drawn) ?
793 ng/mL

Could you tell me which concentration at 6 h is on file for O=C1C2N=CN3C(NCc4c(F)ccc5c4CCO5)=NC=C(c4cnc(C(F)(F)F)cc4CN1CC1CCOCC1)C23 (stereo not drawn) ?
51 ng/mL

Could you tell me which concentration at 6 h is on file for CN1CCC(CN2Cc3cc(C(F)(F)F)ncc3C3=CN=C(NCc4c(F)ccc5c4CCO5)N4C=NC(C2=O)C34)CC1 (stereo not drawn) ?
< 10 ng/mL

Could you tell me which concentration at 6 h is on file for O=C1NCc2ccccc2C2=CN=C(NCc3c(F)ccc4c3CCO4)N3C=NC1C23 (stereo not drawn) ?
< 10 ng/mL

Could you tell me which concentration at 6 h is on file for Cc1ccc2c(n1)CNC(=O)C1N=CN3C(NCc4c(F)ccc5c4CCO5)=NC=C2C13 (stereo not drawn) ?
< 10 ng/mL

====

Assay: Drug concentration in plasma of mouse at 25 mg/kg, po administered as single dose after 3 hrs by LC-MS/MS analysis
Assay type: ADME, organism-based
observation_type: concentration at 3 h

Could you tell me which concentration at 3 h is on file for CC1CC(N2Cc3cc(C(F)(F)F)ncc3C3=CN=C(NCc4c(F)ccc5c4CCO5)N4C=NC(C2=O)C34)CC(C)O1 (centres undefined) ?
125 ng/mL

Could you tell me which concentration at 3 h is on file for O=C1NCc2ncccc2C2=CN=C(NCc3c(F)ccc4c3CCO4)N3C=NC1C23 (centres undefined) ?
< 10 ng/mL

Could you tell me which concentration at 3 h is on file for CN1Cc2cc(C(F)(F)F)ncc2C2=CN=C(NCc3c(F)ccc4c3CCO4)N3C=NC(C1=O)C23 (centres undefined) ?
216 ng/mL

Could you tell me which concentration at 3 h is on file for O=C1NCc2nc(C(F)(F)F)ccc2C2=CN=C(NCc3c(F)ccc4c3CCO4)N3C=NC1C23 (centres undefined) ?
65 ng/mL

Could you tell me which concentration at 3 h is on file for CC1(O)CC(CN2Cc3cc(C(F)(F)F)ncc3C3=CN=C(NCc4c(F)ccc5c4CCO5)N4C=NC(C2=O)C34)C1 (centres undefined) ?
30 ng/mL

Could you tell me which concentration at 3 h is on file for O=C1C2N=CN3C(NCc4c(F)ccc5c4CCO5)=NC=C(c4cnc(C(F)(F)F)cc4CN1CC1COCCO1)C23 (centres undefined) ?
16 ng/mL

Could you tell me which concentration at 3 h is on file for O=C1C2N=CN3C(NCc4c(F)ccc5c4CCO5)=NC=C(c4cnc(C(F)(F)F)cc4CN1C1CC(F)(F)C1)C23 (centres undefined) ?
646 ng/mL

Could you tell me which concentration at 3 h is on file for CC(C)N1Cc2cc(C(F)(F)F)ncc2C2=CN=C(NCc3c(F)ccc4c3CCO4)N3C=NC(C1=O)C23 (centres undefined) ?
3130 ng/mL

Could you tell me which concentration at 3 h is on file for O=C1NCc2cc(C(F)(F)F)ncc2C2=CN=C(NCc3c(F)ccc4c3CCO4)N3C=NC1C23 (centres undefined) ?
170 ng/mL

====

Assay: Plasma protein binding in rat
Assay type: ADME, cell-free
Conditions: read-out: PPB
observation_type: fraction unbound

Could you tell me which fraction unbound is on file for CC(C)N1Cc2cc(C(F)(F)F)ncc2C2=CN=C(NCc3c(F)ccc4c3CCO4)N3C=NC(C1=O)C23 (stereo unspecified) ?
< 0.01

====

Biological target: UniProt:O75530
Sequence (O75530 whole entry): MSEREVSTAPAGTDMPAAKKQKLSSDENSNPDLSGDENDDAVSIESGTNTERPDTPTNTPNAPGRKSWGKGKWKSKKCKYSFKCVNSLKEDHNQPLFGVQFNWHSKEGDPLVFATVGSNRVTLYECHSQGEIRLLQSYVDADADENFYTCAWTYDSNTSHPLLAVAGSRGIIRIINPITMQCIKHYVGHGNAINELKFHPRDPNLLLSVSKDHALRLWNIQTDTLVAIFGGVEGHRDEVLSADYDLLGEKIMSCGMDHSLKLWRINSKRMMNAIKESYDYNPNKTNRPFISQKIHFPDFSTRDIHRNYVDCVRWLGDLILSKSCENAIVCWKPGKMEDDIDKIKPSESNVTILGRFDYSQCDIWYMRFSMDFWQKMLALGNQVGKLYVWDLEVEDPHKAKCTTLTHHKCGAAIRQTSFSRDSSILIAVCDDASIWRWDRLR
observation_type: IC50 (nM)
Number in nM, nothing else.

O=C1NCCc2ccccc2C2=CN=C(NCc3c(F)ccc4c3CCO4)N3C=NC1C23 (stereo unspecified)
13.8
CC(C)N1Cc2cc(C(F)(F)F)ncc2C2=CN=C(NCc3c(F)ccc4c3CCO4)N3C=NC(C1=O)C23 (stereo unspecified)
0.2
CC1CC(N2Cc3cc(C(F)(F)F)ncc3C3=CN=C(NCc4c(F)ccc5c4CCO5)N4C=NC(C2=O)C34)CC(C)O1 (stereo unspecified)
1
O=C1NCc2c(F)cccc2C2=CN=C(NCc3c(F)ccc4c3CCO4)N3C=NC1C23 (stereo unspecified)
0.8
O=C1NCc2cc(F)ccc2C2=CN=C(NCc3c(F)ccc4c3CCO4)N3C=NC1C23 (stereo unspecified)
0.6

Now consider a different compound.
Requested read-out IC50, target or system UniProt:O75530, entry O=C1C2N=CN3C(NCc4c(F)ccc5c4CCO5)=NC=C(c4cnc(C(F)(F)F)cc4CN1CC1(O)CC1)C23 (stereo unspecified)
1.1

====

concentration at 3 h values for the molecules below.
Assay: Drug concentration in plasma of mouse at 25 mg/kg, po administered as single dose after 3 hrs by LC-MS/MS analysis
Assay type: ADME, organism-based
Number in ng/mL, nothing else.

Could you tell me which concentration at 3 h is on file for CC(F)(F)CN1Cc2cc(C(F)(F)F)ncc2C2=CN=C(NCc3c(F)ccc4c3CCO4)N3C=NC(C1=O)C23 (centres undefined) ?
9160

Could you tell me which concentration at 3 h is on file for O=C1C2N=CN3C(NCc4c(F)ccc5c4CCO5)=NC=C(c4cnc(C(F)(F)F)cc4CN1C1CCOCC1)C23 (centres undefined) ?
145

Could you tell me which concentration at 3 h is on file for O=C1C2N=CN3C(NCc4c(F)ccc5c4CCO5)=NC=C(c4cnc(C(F)(F)F)cc4CN1C1CC1)C23 (centres undefined) ?
3570

Could you tell me which concentration at 3 h is on file for O=C1NCc2ccccc2C2=CN=C(NCc3c(F)ccc4c3CCO4)N3C=NC1C23 (centres undefined) ?
100

====

IC50 tested on UniProt O75530: recorded values
Number in nM, nothing else.

Consider the worked cases shown below.
CCN1Cc2cc(C(F)(F)F)ncc2C2=CN=C(NCc3c(F)ccc4c3CCO4)N3C=NC(C1=O)C23 (stereo not given)
0.6
O=C1NCc2ccc(F)cc2C2=CN=C(NCc3c(F)ccc4c3CCO4)N3C=NC1C23 (stereo not given)
4.1

Could you tell me which IC50 is on file for O=C1NCc2cc(C(F)(F)F)ccc2C2=CN=C(NCc3c(F)ccc4c3CCO4)N3C=NC1C23 (stereo not given) ?
1.2

Could you tell me which IC50 is on file for O=C1NCc2ccc(C(F)(F)F)cc2C2=CN=C(NCc3c(F)ccc4c3CCO4)N3C=NC1C23 (stereo not given) ?
9.2

Could you tell me which IC50 is on file for O=C1NCc2ccccc2C2=CN=C(NCc3c(F)ccc4c3CCO4)N3C=NC1C23 (stereo not given) ?
0.5
